Just for reference, the supplement of paper PMC9233669 is where these values come from.

system: biotinyl-Ile-oxazolone; test: self-aminoacylation, catalytic enhancement (BIO) (fold over background); higher = more active; k-Seq, kA / k0A0; sequences stand for … in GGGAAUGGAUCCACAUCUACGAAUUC…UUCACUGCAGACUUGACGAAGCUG
This sample holds only a part of the variants without activity.
QUANTITY_KIND: self-aminoacylation
Numbers only.

Consider the reported self-aminoacylation for these sequences:
AUAACCCUCGUCAUCGAGUGA [Fam2.1 aminoacylation ribozyme variant]    1.89
CCACAUUUCAAGCAAUCGGUG [Fam1B.1 aminoacylation ribozyme variant]    6.23
CCACACUUCAAGCAUUCGGAC [Fam1B.1 aminoacylation ribozyme variant]    1.35
CUACUUCAAACAAUCGUUCAG [Fam1A.1 aminoacylation ribozyme variant]    0.658
AUUACCCUCGUCAACGAGUGA [Fam2.1 aminoacylation ribozyme variant]    1.89
AACAUUGCUAAUAGUCGCAAG [Fam3.1 aminoacylation ribozyme variant]    2.5
CAGUUUGCUAAUAGUCGCAAU [Fam3.1 aminoacylation ribozyme variant]    2.06
AUUCACCUAUGUCAUCGGAUG [Fam2.2 aminoacylation ribozyme variant]    0.826

Would you kindly look at the next entry?
Q: For the sequence shown here, AUUACGCUGAUCAUCGAGUGA [Fam2.1 aminoacylation ribozyme variant] , give the reported self-aminoacylation.
Result: 3.16
